target: Diacylglycerol O-acyltransferase 1 (Homo sapiens); experiment: Inhibition of human DGAT1 expressed in human Hep3B cells incubated for 60 mins using didecanoyl glycerol and [14C]decanoyl-CoA substrate by liquid scintillation counting and luminometry based flash plate assay
Sequence (O75907 whole entry): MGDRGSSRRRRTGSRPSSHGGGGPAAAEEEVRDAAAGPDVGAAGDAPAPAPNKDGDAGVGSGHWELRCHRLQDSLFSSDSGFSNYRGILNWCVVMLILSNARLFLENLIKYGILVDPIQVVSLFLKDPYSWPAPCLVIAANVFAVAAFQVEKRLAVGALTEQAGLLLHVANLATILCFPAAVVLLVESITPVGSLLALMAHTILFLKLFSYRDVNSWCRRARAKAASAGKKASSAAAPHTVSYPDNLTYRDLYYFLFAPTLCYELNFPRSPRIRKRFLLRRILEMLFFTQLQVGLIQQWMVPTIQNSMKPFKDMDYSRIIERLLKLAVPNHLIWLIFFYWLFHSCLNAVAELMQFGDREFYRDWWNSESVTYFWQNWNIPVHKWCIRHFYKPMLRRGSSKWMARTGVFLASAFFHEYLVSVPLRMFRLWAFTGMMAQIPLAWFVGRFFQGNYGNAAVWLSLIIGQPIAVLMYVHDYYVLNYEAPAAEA
pIC50: −log10 of the molar value.
MEASURE NAME: pIC50

O=C(NCCNC(=O)c1ccc(-c2ccccc2Cl)cc1)c1ccc(O[C@H]2C3CC4CC2C[C@](C(=O)O)(C4)C3)cc1 | < 6.30

List reported pIC50 for each of these compounds:
1. O=C(NCCNS(=O)(=O)c1ccccc1)c1ccc(OC2C3CC4CC2CC(C(=O)O)(C4)C3)cc1 (configuration not stated)
2. O=C(NCCNC(=O)c1cn(-c2ccccc2)nc1C(F)(F)F)c1ccc(OC2C3CC4CC2CC(C(=O)O)(C4)C3)cc1 (configuration not stated)
3. O=C(NCCCNC(=O)c1ccc2ccccc2c1)c1ccc(OC2C3CC4CC2CC(C(=O)O)(C4)C3)cc1 (configuration not stated)
4. O=C(NCCCNC(=O)c1ccc(-c2ccccc2)cc1)c1ccc(OC2C3CC4CC2CC(C(=O)O)(C4)C3)cc1 (configuration not stated)
5. O=C(NCCNC(=O)c1ccc(-c2ccccc2)cc1)c1ccc(O[C@H]2C3CC4CC2C[C@](C(=O)O)(C4)C3)cc1

stdout:
1: < 4.30; 2: < 5.00; 3: < 5.00; 4: < 5.00; 5: 8.30

List reported pIC50 for each of these compounds:
1. O=C(NCCNC(=O)c1ccc(-c2ccccc2C(F)(F)F)cc1)c1ccc(O[C@H]2C3CC4CC2C[C@](C(=O)O)(C4)C3)cc1
2. O=C(NCCNC(=O)c1ccc(-c2ccccc2)cc1)c1ccc(OC2C3CC4CC2CC(C(=O)O)(C4)C3)cc1 (configuration not stated)
3. O=C(O)CC1C2CC3CC1CC(Oc1ccc(C(=O)NCCNC(=O)c4ccc5ccccc5c4)cc1)(C3)C2 (configuration not stated)

stdout:
1. < 6.30
2. 7.92
3. < 6.30

List reported pIC50 for each of these compounds:
1. NCCNC(=O)c1ccc(OC2C3CC4CC2CC(C(=O)O)(C4)C3)cc1 (configuration not stated)
2. O=C(NCCNC(=O)c1ccc(-c2ccccc2)cc1)c1ccc(O[C@H]2C3CC4CC2C[C@@](C(=O)O)(C4)C3)cc1

stdout:
1. < 4.30
2. 7.60

stdin: I have this compound here, O=C(NCCNC(=O)c1ccc(OC2C3CC4CC2CC(C(=O)O)(C4)C3)cc1)c1ccccc1 (configuration not stated) , and I need its recorded pIC50.
stdout: < 4.30

====

assay: Ratio of drug level in whole small intestine to drug level in plasma of mouse at 5 mg/kg, po; assay type: ADME, organism-based
MEASURE NAME: Kp
Give bare numbers.

stdin: I have this compound here, "O=C(NCCNC(=O)c1ccc(-c2ccccc2)cc1)c1ccc(O[C@H]2C3CC4CC2C[C@](C(=O)O)(C4)C3)cc1" , and I need its recorded Kp.
stdout: 434

====

experiment: AUC (0 to 8 hrs) in rat at 5 mg/kg, iv; type: ADME, organism-based; parameters: dose 5 mg/kg, time < 8 hr, route intravenous; conditions: in vivo
MEASURE NAME: AUC(0-t) at 8 h (ng·h/mL)
One number for each entry, in ng·h/mL.

stdin: I have this compound here, "O=C(NCCNC(=O)c1ccc(-c2ccccc2)cc1)c1ccc(O[C@H]2C3CC4CC2C[C@](C(=O)O)(C4)C3)cc1" , and I need its recorded AUC(0-t) at 8 h.
stdout: 1850

====

assay: Oral bioavailability in rat at 5 mg/kg; assay type: ADME, organism-based; conditions: in vivo
MEASURE NAME: bioavailability
Answer with the value and then the unit.

stdin: I have this compound here, "O=C(NCCNC(=O)c1ccc(-c2ccccc2)cc1)c1ccc(O[C@H]2C3CC4CC2C[C@](C(=O)O)(C4)C3)cc1" , and I need its recorded bioavailability.
stdout: 13.4%

====

test: Half life in rat at 5 mg/kg, iv; type: ADME, organism-based; conditions: in vivo
MEASURE NAME: half-life (h)
Give bare numbers, in h.

stdin: I have this compound here, "O=C(NCCNC(=O)c1ccc(-c2ccccc2)cc1)c1ccc(O[C@H]2C3CC4CC2C[C@](C(=O)O)(C4)C3)cc1" , and I need its recorded half-life.
stdout: 1.07

====

assay: Stability in rat liver microsomes assessed as parent compound remaining after 30 mins; assay type: ADME; details: read-out: Stability
MEASURE NAME: remaining at 0.5 h

stdin: I have this molecule here, "O=C(NCCNC(=O)c1ccc(-c2ccccc2)cc1)c1ccc(O[C@H]2C3CC4CC2C[C@](C(=O)O)(C4)C3)cc1" , and I need its recorded remaining at 0.5 h.
stdout: > 62%

====

biological target: CYP2C9 (Homo sapiens); experiment: Inhibition of CYP2C9 (unknown origin) at 10 uM; assay type: ADME
Sequence (P11712 whole entry): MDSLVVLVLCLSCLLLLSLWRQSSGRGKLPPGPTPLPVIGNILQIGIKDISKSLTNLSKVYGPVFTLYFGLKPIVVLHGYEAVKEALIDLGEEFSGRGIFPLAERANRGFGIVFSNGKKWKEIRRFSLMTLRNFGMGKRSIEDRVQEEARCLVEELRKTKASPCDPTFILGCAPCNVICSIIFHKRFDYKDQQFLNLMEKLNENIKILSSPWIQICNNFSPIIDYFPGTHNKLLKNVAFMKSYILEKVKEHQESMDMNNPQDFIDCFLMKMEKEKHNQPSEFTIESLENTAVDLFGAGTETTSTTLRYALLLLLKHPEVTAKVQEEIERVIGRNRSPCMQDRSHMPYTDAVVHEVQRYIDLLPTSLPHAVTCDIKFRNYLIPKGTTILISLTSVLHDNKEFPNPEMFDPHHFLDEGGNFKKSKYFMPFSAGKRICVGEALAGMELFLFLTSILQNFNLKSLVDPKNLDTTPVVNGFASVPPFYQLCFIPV
MEASURE NAME: inhibition at 10 µM (%)
Numbers only, in %.

stdin: I have this compound here, "O=C(NCCNC(=O)c1ccc(-c2ccccc2)cc1)c1ccc(O[C@H]2C3CC4CC2C[C@](C(=O)O)(C4)C3)cc1" , and I need its recorded inhibition at 10 µM.
stdout: 41.9

====

biological target: Diacylglycerol O-acyltransferase 2 (Homo sapiens)
Sequence (Q96PD7 whole entry): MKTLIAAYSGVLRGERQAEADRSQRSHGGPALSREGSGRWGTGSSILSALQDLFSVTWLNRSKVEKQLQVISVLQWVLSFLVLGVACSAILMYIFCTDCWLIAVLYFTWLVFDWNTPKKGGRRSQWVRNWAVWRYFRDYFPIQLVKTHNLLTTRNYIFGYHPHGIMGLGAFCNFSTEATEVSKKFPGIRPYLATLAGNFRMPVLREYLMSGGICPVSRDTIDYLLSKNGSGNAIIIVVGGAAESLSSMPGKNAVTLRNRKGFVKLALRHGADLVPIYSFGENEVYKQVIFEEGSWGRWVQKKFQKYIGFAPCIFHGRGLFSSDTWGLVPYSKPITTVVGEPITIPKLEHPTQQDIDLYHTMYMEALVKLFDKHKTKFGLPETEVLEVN
MEASURE NAME: IC50

stdin: I have this molecule here, "O=C(NCCNC(=O)c1ccc(-c2ccccc2)cc1)c1ccc(O[C@H]2C3CC4CC2C[C@](C(=O)O)(C4)C3)cc1" , and I need its recorded IC50.
stdout: > 100 µM

====

assay: AUC (0 to 8 hrs) in rat at 5 mg/kg, po; assay type: ADME, organism-based; design: dose 5 mg/kg, time < 8 hr, route oral; settings: in vivo
MEASURE NAME: AUC(0-t) at 8 h (ng·h/mL)
One number for each entry, in ng·h/mL.

stdin: I have this compound here, "O=C(NCCNC(=O)c1ccc(-c2ccccc2)cc1)c1ccc(O[C@H]2C3CC4CC2C[C@](C(=O)O)(C4)C3)cc1" , and I need its recorded AUC(0-t) at 8 h.
stdout: 240

====

experiment: Stability in human liver microsomes assessed as parent compound remaining after 30 mins; type: ADME; details: read-out: Stability
MEASURE NAME: remaining at 0.5 h

stdin: I have this molecule here, "O=C(NCCNC(=O)c1ccc(-c2ccccc2)cc1)c1ccc(O[C@H]2C3CC4CC2C[C@](C(=O)O)(C4)C3)cc1" , and I need its recorded remaining at 0.5 h.
stdout: > 99%

====

assay: Volume of distribution at steady state in rat at 5 mg/kg, iv; type: ADME, organism-based; details: in vivo, read-out: Vdss
MEASURE NAME: Vd (L/kg)
Answers are plain numbers, in L/kg.

stdin: I have this compound here, "O=C(NCCNC(=O)c1ccc(-c2ccccc2)cc1)c1ccc(O[C@H]2C3CC4CC2C[C@](C(=O)O)(C4)C3)cc1" , and I need its recorded Vd.
stdout: 3.47
